- Protocol Text: NCI Yeast Anticancer Drug Screen. Data for the rad50 strain (AID 155);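 further: 0% = growth of vehicle-only cultures of the same strain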
- Experimental Setup: S. cerevisiae rad50 strain growth inhibition; at 50.0 µM; stronger effect = higher value
The panel holds about 79,000 compounds, 15% with a hit somewhere; the sample as a whole holds those more often.
Listing: growth inhibition of selected molecules
Parameter Measured: growth inhibition (%)

[[record]]
molecule = "CNS(=O)(=O)c1ccc(N)cc1"
parameter_measured = "growth inhibition"
readout_unit = "%"
numeric_result = -2.9

[[record]]
molecule = "O=CC(NC(=O)OCc1ccccc1)C(O)C(O)C(O)CO (stereo not given)"
parameter_measured = "growth inhibition"
readout_unit = "%"
numeric_result = -15.3

[[record]]
molecule = "COc1cccc(C2c3cc4c(cc3OC(N3CCCC3)C2C)OCO4)c1OC (stereo not given)"
parameter_measured = "growth inhibition"
readout_unit = "%"
numeric_result = 24.8

[[record]]
molecule = "Cc1nc2c(=O)[nH]c(N)nc2[nH]c1=O"
parameter_measured = "growth inhibition"
readout_unit = "%"
numeric_result = -10

[[record]]
molecule = "COc1cccc(NC(=S)/C(=C(/[O-])c2ccc([N+](=O)[O-])cc2)[n+]2cccc3ccccc32)c1"
parameter_measured = "growth inhibition"
readout_unit = "%"
numeric_result = 26.1


====

- Protocol Text: NCI Yeast Anticancer Drug Screen. Data for the bub3 strain (AID 167)
- Experimental Setup: S. cerevisiae bub3 mutant strain, at 50.0 µM, stronger effect = higher value
The panel holds about 79,000 compounds, 15% with a hit somewhere; the sample as a whole holds those more often.
Parameter Measured: growth inhibition (%)

[[record]]
molecule = "OCCNNCCO"
readout_unit = "%"
numeric_result = 15.1

[[record]]
molecule = "CCCCCCCCCCCCC1CC(=O)OC1=O (stereo not drawn)"
readout_unit = "%"
numeric_result = 32.5

[[record]]
molecule = "CN(C)N1C(=C(C#N)C#N)C(c2ccccc2)CC1C#N (stereo not drawn)"
readout_unit = "%"
numeric_result = -25.8

[[record]]
molecule = "O=C(Nc1ccc(Cl)cc1)NS(=O)(=O)c1coc2ccccc2c1=O"
readout_unit = "%"
numeric_result = 11.6

[[record]]
molecule = "c1ccn2cncc2c1"
readout_unit = "%"
numeric_result = 20.7

[[record]]
molecule = "CC1C=CC(C)S(=O)N1C(=O)Cc1ccccc1 (stereo not drawn)"
readout_unit = "%"
numeric_result = -25.5

[[record]]
molecule = "CC(=O)Oc1ccc(/C=C/c2ccccn2)cc1"
readout_unit = "%"
numeric_result = 3.75

[[record]]
molecule = "O=C(NCCCl)Nc1cccc2c1CCC2"
readout_unit = "%"
numeric_result = -23.1

[[record]]
molecule = "O=c1[nH]cc([N+](=O)[O-])c(=O)[nH]1"
readout_unit = "%"
numeric_result = 16.9

[[record]]
molecule = "CCCCC(=O)/C=C/c1ccccc1"
readout_unit = "%"
numeric_result = -6.6

[[record]]
molecule = "Cc1nc2c(=O)[nH]c(N)nc2[nH]c1=O"
readout_unit = "%"
numeric_result = -13.8

[[record]]
molecule = "CC(O)(COS(=O)(=O)c1ccccc1)c1ccccc1 (stereo not drawn)"
readout_unit = "%"
numeric_result = 26.7

[[record]]
molecule = "O=C(N/N=C1\\CCc2ccccc2C1)N/N=C1\\CCc2ccccc2C1"
readout_unit = "%"
numeric_result = -18.9

[[record]]
molecule = "CN(C)Cc1ccccc1C(=C(c1ccccc1)c1ccccc1)c1ccccc1"
readout_unit = "%"
numeric_result = -0.8

[[record]]
molecule = "O=C(O)c1c(O)ccc(O)c1C(=O)O"
readout_unit = "%"
numeric_result = -8.8

[[record]]
molecule = "Oc1cc2c(cc1O)C1c3ccc(O)c(O)c3OCC1(O)C2 (stereo not drawn)"
readout_unit = "%"
numeric_result = 9.4

[[record]]
molecule = "COC(=O)C1C(O)C(C)C(O)OC1C(C)C(O)C(C)/C=C\\C=C(/C)C(=O)Nc1c(C)c(OC(C)=O)c2c(c1O)C(=O)C(C)=C1OCOC(/C(C)=C/C(C)=O)=C12 (stereo not drawn)"
readout_unit = "%"
numeric_result = 14

[[record]]
molecule = "C=C(C)COC(=O)Nc1cccc(Cl)c1"
readout_unit = "%"
numeric_result = 10.2

[[record]]
molecule = "CC(=O)N(C)N=Nc1ccc(Cl)cc1"
readout_unit = "%"
numeric_result = 3.8

[[record]]
molecule = "O=S1(=O)CS(=O)(=O)OCCCCO1"
readout_unit = "%"
numeric_result = -9.05

[[record]]
molecule = "CC1CCC(=O)CN1Cc1ccccc1 (stereo not drawn)"
readout_unit = "%"
numeric_result = 22.4

[[record]]
molecule = "Cn1c(=O)n2n(c1=O)C1C=CC2C2C=C(c3ccccc3)C21 (stereo not drawn)"
readout_unit = "%"
numeric_result = 36.5

[[record]]
molecule = "O=[N+]([O-])c1ccc(C[N+]2(CCC[N+]3(Cc4ccc([N+](=O)[O-])cc4)CCCC3)CCCC2)cc1"
readout_unit = "%"
numeric_result = 8.75

